Hello, the source for this data is paper doi:10.1101/2021.11.30.469594v1, in case you need it.

Molecular target: PRPK/TPRKB complex (also PRPK/PRPKB; PRPK aka TP53RK) (Homo sapiens)
Sequence (Q96S44 whole entry, other chains not shown): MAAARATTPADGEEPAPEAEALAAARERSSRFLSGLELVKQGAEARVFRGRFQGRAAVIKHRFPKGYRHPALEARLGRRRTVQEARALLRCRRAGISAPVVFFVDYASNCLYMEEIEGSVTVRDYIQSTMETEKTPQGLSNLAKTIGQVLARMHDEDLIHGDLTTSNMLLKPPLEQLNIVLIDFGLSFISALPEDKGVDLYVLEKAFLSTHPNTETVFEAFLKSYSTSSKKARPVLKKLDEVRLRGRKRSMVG
Assay: ITC
Assay type: binding
Conditions: pH […] °C, […] DMSO
observed property: Kd (µM)
Give the value, in units of µM, as a plain number.

Tested on PRPK/TPRKB complex (also PRPK/PRPKB; PRPK aka TP53RK) (Homo sapiens): C[C@]1(N2C(=O)c3cccc(O)c3C2=O)CCC(=O)NC1=O . Observed Kd: 27

----------
Recorded pKd, one value per entry.
Molecular target: PRPK/TPRKB complex (also PRPK/PRPKB; PRPK aka TP53RK) (Homo sapiens)
Experiment: ITC
Type: binding
Scale explanation: pKd corresponds to minus log10 of a concentration expressed in moles per litre.

compound: Nc1ccc2c(c1)C(=O)N(C1CCC(=O)NC1=O)C2=O (stereo not drawn)
system name: PRPK/TPRKB complex (also PRPK/PRPKB; PRPK aka TP53RK) (Homo sapiens)
reported result: 5.21

Notebook: O=C1CCC(N2C(=O)c3cccc(O)c3C2=O)C(=O)N1 (stereo not drawn) , pKd read as 5.66

----------
Molecular target: PRPK/TPRKB complex (also PRPK/PRPKB; PRPK aka TP53RK) (Homo sapiens)
Assay: ITC
Assay type: binding
Settings: pH […] °C, […] DMSO; crystal structure solved here, ATP site
observed property: pKd
As a rule, pKd stands for the negative log10 of the concentration, concentration in M.

Form: molecule = C[C@@]1(N2C(=O)c3cccc(O)c3C2=O)CCC(=O)NC1=O [DB-A5] ; pKd = 5.74
